# Test Summary: NCI Yeast Anticancer Drug Screen. Data for the rad50 strain (AID 155);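 note: 0% = growth of vehicle-only cultures of the same strain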
# Protocol Conditions: S. cerevisiae rad50 strain growth inhibition; at 50.0 µM; hits give high values
This is part of a sample that, as a whole, favours compounds with a hit. Of some 79,000 tested, about 15% had one in any assay.
Value Type: growth inhibition (%)
Lab book: enter the figure in %, no units written.

Entry under review: `O=c1cc(-c2ccc3ccccc3n2)oc2ccccc12` . Reported growth inhibition?
-16.4

And the next one, `CN(C)C(=N/O)/C(=N\O)N(C)C` ?
-5.05

// same read-out, input: CC12CCC(C(=O)n3c1nc1ccccc13)C(C)(C)O2 (stereo unspecified)
8.15

`CC(=O)c1sc(Nc2nnc(-c3ccc(-c4nnc(Nc5nc(C)c(C(C)=O)s5)o4)cc3)o2)nc1C` , same question.
3.15

Also check C[N+]1(C)C2CC(=O)CC1C1CC12 (stereo unspecified)
-10.2

Entry `NC(=O)NC12CC3CC(CC(F)(C3)C1)C2` please
-19.6
